- System: HCT-116 cell line
- Assay: MTT assay, cytotoxicity on HCT-116 cell line
- Type: cell-based, human
- Condition context: Homo sapiens, HCT-116, 48 h treatment, NA: not active up to 200 μM, read-out: HCT-116 IC50 (μM) ± SD
Parameter: IC50 (µM)
Your answer is read as µM, so omit the unit and give the number.

> print(dat)
                                   molecule  parameter  result
1        CC(=O)Oc1ccccc1C(=O)OCCSS(C)(=O)=O       IC50    87.9
2  CC1=C(CC(=O)OCCSS(C)(=O)=O)c2cc(F)ccc2/C1=C\c1ccc([S+](C)[O-])cc1 (stereo not shown)       IC50     104

Fill blank: measured IC50 of the molecule Cc1ccc(S(=O)(=O)OCC(=O)Nc2ccc(C(=O)O)c(O)c2)cc1 [Compound S3I-301, reference compound] is ____. 39.5

====

- Tested on: STAT3-SH2 domain (Homo sapiens)
- Construct: First, 75 nM of each SH2-containing protein was incubated with the test compound for 15 min
- Sequence (P40763 whole entry, the tested form may be a part): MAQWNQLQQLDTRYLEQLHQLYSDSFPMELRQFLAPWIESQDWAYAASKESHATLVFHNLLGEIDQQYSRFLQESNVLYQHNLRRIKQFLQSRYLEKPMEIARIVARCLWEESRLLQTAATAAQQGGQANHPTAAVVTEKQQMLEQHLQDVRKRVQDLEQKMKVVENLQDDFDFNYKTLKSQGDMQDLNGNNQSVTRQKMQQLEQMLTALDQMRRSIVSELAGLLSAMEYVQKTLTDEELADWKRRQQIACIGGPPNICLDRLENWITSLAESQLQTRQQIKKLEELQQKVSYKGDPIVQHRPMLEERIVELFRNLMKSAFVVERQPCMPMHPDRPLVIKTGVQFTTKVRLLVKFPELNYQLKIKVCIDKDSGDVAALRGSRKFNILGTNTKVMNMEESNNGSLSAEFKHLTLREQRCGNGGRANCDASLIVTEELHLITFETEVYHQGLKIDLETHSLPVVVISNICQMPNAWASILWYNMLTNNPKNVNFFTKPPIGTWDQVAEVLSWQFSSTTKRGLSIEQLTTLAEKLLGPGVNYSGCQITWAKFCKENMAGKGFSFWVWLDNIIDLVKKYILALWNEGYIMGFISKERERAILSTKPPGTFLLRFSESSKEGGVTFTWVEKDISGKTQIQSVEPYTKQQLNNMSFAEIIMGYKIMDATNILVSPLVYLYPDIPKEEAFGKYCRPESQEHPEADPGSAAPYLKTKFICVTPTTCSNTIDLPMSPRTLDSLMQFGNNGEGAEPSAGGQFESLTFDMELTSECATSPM
- Assay: AlphaScreen-based assay, STAT3-SH2 domain / pTyr peptide binding
- Condition context: 30 μM, a = mean of two experiments
Where a name gives a salt, the structure may show the parent alone.
Consider the following compounds and their measured inhibition at 30 µM readings.
Write it as a number; the unit % goes unstated.

> print(dat)
                       compound            parameter  result
1  CCCC(CCC)C(=O)NCCSS(C)(=O)=O  inhibition at 30 µM     106

// returns reported inhibition at 30 µM for input O=C(O)Cc1ccccc1Nc1c(Cl)cccc1Cl [Diclofenac sodium salt, reference compound] 4.5

Endpoint output: inhibition at 30 µM of CC1=C(CC(=O)OCCSS(C)(=O)=O)c2cc(F)ccc2/C1=C\c1ccc([S+](C)[O-])cc1 (centres unmarked) . Value? 102

Given the entry CC1=C(CC(=O)O)c2cc(F)ccc2/C1=C\c1ccc([S+](C)[O-])cc1 (centres unmarked) [Sulindac, sulindac, reference compound] , report its measured inhibition at 30 µM. 4.2

Give the measured inhibition at 30 µM of "Cc1ccc(S(=O)(=O)SCC(=O)Nc2ccc(C(=O)O)c(O)c2)cc1" . 58.4

====

- Tested on: STAT1 (Homo sapiens)
- Construct: First, 75 nM of each SH2-containing protein was incubated with the test compound for 15 min
- Sequence (P42224 whole entry): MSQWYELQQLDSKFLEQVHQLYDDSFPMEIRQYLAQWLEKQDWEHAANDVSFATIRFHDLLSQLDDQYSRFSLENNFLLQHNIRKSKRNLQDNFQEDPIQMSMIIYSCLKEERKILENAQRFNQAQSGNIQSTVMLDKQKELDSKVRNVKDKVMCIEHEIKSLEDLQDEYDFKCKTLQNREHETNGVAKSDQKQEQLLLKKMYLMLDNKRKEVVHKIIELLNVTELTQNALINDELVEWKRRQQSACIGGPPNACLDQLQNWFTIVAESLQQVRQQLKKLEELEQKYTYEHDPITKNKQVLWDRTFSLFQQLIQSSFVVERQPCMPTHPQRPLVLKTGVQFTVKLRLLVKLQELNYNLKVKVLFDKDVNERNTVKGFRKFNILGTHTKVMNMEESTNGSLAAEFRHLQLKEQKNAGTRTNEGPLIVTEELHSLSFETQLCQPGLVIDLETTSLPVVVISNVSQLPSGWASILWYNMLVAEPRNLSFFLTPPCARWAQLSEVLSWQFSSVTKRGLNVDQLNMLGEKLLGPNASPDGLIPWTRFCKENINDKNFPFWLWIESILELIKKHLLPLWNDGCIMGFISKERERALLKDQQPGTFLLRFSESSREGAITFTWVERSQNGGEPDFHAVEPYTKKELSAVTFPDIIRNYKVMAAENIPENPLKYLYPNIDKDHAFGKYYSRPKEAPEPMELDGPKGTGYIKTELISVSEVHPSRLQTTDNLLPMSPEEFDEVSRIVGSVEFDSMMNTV
- Assay: AlphaScreen-based assay, selectivity versus STAT1
- Assay type: binding
- Condition context: read-out: STAT1 IC50 (μM) ± SD
- Method: STAT3 inhibitory activity of the described compounds was tested by the AlphaScreen-based assay to evaluate the potential inhibition of the interaction between STAT3-SH2 domain and pTyr-containing peptides according to the previously reported procedure. For the most interesting compounds, selectivity tests versus STAT1 and Grb2 (Growth factor receptor-bound protein 2) were performed. […]
Counter-ions that a name gives are not always drawn.
Parameter: IC50

> print(dat)
                                   compound  result
1  CS(=O)(=O)SCCOC(=O)Cc1ccccc1Nc1c(Cl)cccc1Cl  > 3 µM
2  CS(=O)(=O)SCCN [Compound 10, S-(2-aminoethyl) methanesulfonothioate, reference compound]  > 3 µM

Please look up its IC50: CC1=C(CC(=O)O)c2cc(F)ccc2/C1=C\c1ccc([S+](C)[O-])cc1 (centres unmarked) [Sulindac, sulindac, reference compound] > 30 µM

Suppose we examine the compound "CCCC(CCC)C(=O)OCCSS(C)(=O)=O" ; what IC50 value has been reported? > 3 µM

Quick one: IC50 of O=C(O)Cc1ccccc1Nc1c(Cl)cccc1Cl [Diclofenac sodium salt, reference compound] ? > 30 µM
